- TARGET_OR_SYSTEM: Human BCL-XL protein (N-terminal HiBiT tagged BCL-XL expressed in HT1080 cells) (Homo sapiens)
- Construct: expressed in transfected cells; host or cells: HT-1080 (ATCC CCL-121), stably transduced with lentivirus pLV-UBC-N-HiBiT-BCL-XL-PGK-puro and selected with puromycin
- PROCEDURE_SUMMARY: HiBiT Based Degradation Assay
- Format: cell-based
- ASSAY_CONDITIONS: BCL-XL degradation, HT1080 cells expressing N-HiBiT-BCL-XL, 24 hours incubation, normalized with DMSO control; geometric mean for multiple data points; read-out: EC50 (24 h)
MEASURED_ENDPOINT: DC50

// field: DC50; key: Cc1c(-c2ccc(N3CCc4cccc(C(=O)Nc5nc6ccccc6s5)c4C3)nc2C(=O)O)cccc1N(C)CCCC1CCN(CC(=O)Nc2ccc3c(C4CCC(=O)NC4=O)nn(C)c3c2)CC1 (stereo not drawn) [Compound 220] ; value = 10 to 100 nM

Value of measured DC50 for the entry Cn1nc(C2CCC(=O)NC2=O)c2ccc(NC(=O)CN3CCC4(CC3)CC(Oc3ccc(-c5ccc(N6CCc7cccc(C(=O)Nc8nc9ccccc9s8)c7C6)nc5C(=O)O)c(C(F)(F)F)c3)C4)c(F)c21 (stereo not drawn) [Compound 189] : < 10 nM

Record Cc1c(OCCC[C@@H]2CCN(CC(=O)Nc3ccc4c(C5CCC(=O)NC5=O)nn(C)c4c3)[C@@H](C)C2)cccc1-c1ccc(N2CCc3cccc(C(=O)Nc4nc5ccccc5s4)c3C2)nc1C(=O)O (stereo partly drawn) [Compound 208a] . Reported DC50: 10 to 100 nM

Notebook: Cc1cc(O[C@H](C)CCC2CCN(CC(=O)Nc3ccc4c(C5CCC(=O)NC5=O)nn(C)c4c3)CC2)ccc1-c1ccc(N2CCc3ccnc(C(=O)Nc4nc5ccccc5s4)c3C2)nc1C(=O)O (single isomer, unassigned) [Compound 133a] , DC50 read as 10 to 100 nM

// field: DC50; key: C[C@@H]1C[C@@H](CCCOc2ccc(-c3ccc(N4CCc5cccc(C(=O)Nc6nc7ccccc7s6)c5C4)nc3C(=O)O)c(C(F)(F)F)c2)CCN1CC(=O)Nc1ccc2c(C3CCC(=O)NC3=O)nn(C)c2c1 (stereo partly drawn) [Compound 209d] ; value = < 10 nM

Next:
What the record says about Cc1cc(N(C)CCCC2CCN(CC(=O)Nc3ccc4c(C5CCC(=O)NC5=O)nn(C)c4c3)CC2)ccc1-c1ccc(N2CCc3cccc(C(=O)Nc4nc5ccccc5s4)c3C2)nc1C(=O)O (stereo not drawn) [Compound 222] : DC50 is < 10 nM

Briefly, DC50 measured for Cc1c(OC[C@H]2C[C@H]2CC2CCN(CC(=O)Nc3ccc4c(C5CCC(=O)NC5=O)nn(C)c4c3)CC2)cccc1-c1ccc(N2CCc3cccc(C(=O)Nc4nc5ccccc5s4)c3C2)nc1C(=O)O (single isomer, unassigned) [Compound 1004d] : 10 to 100 nM

// sample Cn1nc(C2CCC(=O)NC2=O)c2ccc(NC(=O)CN3CCC4(CC3)CC(COc3cccc(-c5ccc(N6CCc7cccc(C(=O)Nc8nc9ccccc9s8)c7C6)nc5C(=O)O)c3C(F)(F)F)C4)c(F)c21 (stereo not drawn) [Compound 185] , its DC50 was 10 to 100 nM

DC50 in this record for COc1c(NC(=O)CN2CCC3(CC2)CC(Oc2cccc(-c4ccc(N5CCc6cccc(C(=O)Nc7nc8ccccc8s7)c6C5)nc4C(=O)O)c2C(F)(F)F)C3)ccc2c(C3CCC(=O)NC3=O)nn(C)c12 (stereo not drawn) [Compound 166] : 10 to 100 nM

###

Parameter DC50: see the listing below.
- TARGET_OR_SYSTEM: Human BCL-XL protein (N-terminal HiBiT tagged BCL-XL expressed in HT1080 cells) (Homo sapiens, UniProt Q07817)
- Construct: expressed in transfected cells; host or cells: HT-1080 (ATCC CCL-121), stably transduced with lentivirus pLV-UBC-N-HiBiT-BCL-XL-PGK-puro and selected with puromycin
- Sequence (Q07817 whole entry): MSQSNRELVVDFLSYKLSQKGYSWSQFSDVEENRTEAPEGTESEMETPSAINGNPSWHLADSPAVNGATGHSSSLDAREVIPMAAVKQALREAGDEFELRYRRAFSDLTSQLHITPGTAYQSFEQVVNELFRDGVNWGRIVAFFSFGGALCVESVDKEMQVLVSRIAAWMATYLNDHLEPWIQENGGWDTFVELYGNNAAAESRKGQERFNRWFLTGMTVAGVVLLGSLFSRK
- PROCEDURE_SUMMARY: HiBiT Based Degradation Assay
- Assay type: cell-based
- ASSAY_CONDITIONS: BCL-XL degradation, HT1080 cells expressing N-HiBiT-BCL-XL, 24 hours incubation, normalized with DMSO control; geometric mean for multiple data points; read-out: EC50 (24 h)

Per the record, C[C@H]1C[C@H](CCCOc2cccc(-c3ccc(N4CCc5cccc(C(=O)Nc6nc7ccccc7s6)c5C4)nc3C(=O)O)c2C(F)(F)F)CCN1CC(=O)Nc1ccc2c(C3CCC(=O)NC3=O)nn(C)c2c1 (stereo partly drawn) [Compound 215a] has DC50 of 10 to 100 nM

# compound Cc1c(OCC2CC3(CCN(CC(=O)Nc4ccc5c(C6CCC(=O)NC6=O)nn(C)c5c4F)CC3)C2)cccc1-c1ccc(N2CCc3cccc(C(=O)Nc4nc5ccccc5s4)c3C2)nc1C(=O)O (stereo not drawn) ; its DC50 = 10 to 100 nM

---
Value of measured DC50 for the entry Cn1nc(C2CCC(=O)NC2=O)c2ccc(NC(=O)CN3CCC4(CC3)CC(Oc3cccc(-c5ccc(N6CCc7ccnc(C(=O)Nc8nc9ccccc9s8)c7C6)nc5C(=O)O)c3C(F)(F)F)C4)c(F)c21 (stereo not drawn) : < 10 nM

The compound Cc1c(OCCC[C@@H]2C[C@H]3CC[C@@H](C2)N3CC(=O)Nc2ccc3c(C4CCC(=O)NC4=O)nn(C)c3c2)cccc1-c1ccc(N2CCc3cccc(C(=O)Nc4nc5ccccc5s4)c3C2)nc1C(=O)O (stereo partly drawn) [Compound 175a] showed DC50 equal to < 10 nM

The reported value for Cc1cc(O[C@@H](C)CCC2CCN(CC(=O)Nc3ccc4c(C5CCC(=O)NC5=O)nn(C)c4c3F)CC2)ccc1-c1ccc(N2CCc3cccc(C(=O)Nc4nc5ccccc5s4)c3C2)nc1C(=O)O (single isomer, unassigned) [Compound 224a] in terms of DC50 is 10 to 100 nM

So, Cc1cc(OC[C@@H](C)CC2CCN(CC(=O)Nc3ccc4c(C5CCC(=O)NC5=O)nn(C)c4c3)CC2)ccc1-c1ccc(N2CCc3ccnc(C(=O)Nc4nc5ccccc5s4)c3C2)nc1C(=O)O (single isomer, unassigned) [Compound 140b] ? Its DC50 was 10 to 100 nM

Reported DC50 for Cn1nc(C2CCC(=O)NC2=O)c2ccc(NC(=O)CN3CCC(CCCOc4cccc(-c5ccc(N6CCc7cccc(C(=O)Nc8nc9ccccc9s8)c7C6)nc5C(=O)O)c4F)CC3)c(F)c21 (stereo not drawn) was 10 to 100 nM

The compound Cc1c(OC2CC3(CCN(CC(=O)Nc4ccc5c(C6CCC(=O)NC6=O)nn(C)c5c4)CC3)C2)cccc1-c1ccc(N2CCc3cccc(C(=O)Nc4nc5ccccc5s4)c3C2)nc1C(=O)O (stereo not drawn) showed DC50 equal to < 10 nM

Please fill in: DC50 reported for Cn1nc(C2CCC(=O)NC2=O)c2ccc(NC(=O)CN3CCC4(CC3)CC(Oc3cccc(-c5ccc(N6CCc7ccnc(C(=O)Nc8nc9ccccc9s8)c7C6)nc5C(=O)O)c3C(F)(F)F)C4)nc21 (stereo not drawn) = < 10 nM

###

- TARGET_OR_SYSTEM: Human BCL-XL protein (N-terminal HiBiT tagged BCL-XL expressed in HT1080 cells) (Homo sapiens, UniProt Q07817)
- Construct: expressed in transfected cells; host or cells: HT-1080 (ATCC CCL-121), stably transduced with lentivirus pLV-UBC-N-HiBiT-BCL-XL-PGK-puro and selected with puromycin
- PROCEDURE_SUMMARY: HiBiT Based Degradation Assay
- Assay type: cell-based
- ASSAY_CONDITIONS: bottom of BCL-XL degradation curve (remaining HiBiT-BCL-XL signal vs DMSO control), HT1080 cells, 24 hours incubation
MEASURED_ENDPOINT: Ymin (24 h)

// recorded Ymin (24 h) for Cc1c(OCC2CC3(CCN(CC(=O)Nc4cc5c(cc4C(F)(F)F)c(C4CCC(=O)NC4=O)nn5C)CC3)C2)cccc1-c1ccc(N2CCc3cccc(C(=O)Nc4nc5ccccc5s4)c3C2)nc1C(=O)O (centres unmarked) [Compound 139] : C (50% ≤ Ymin < 70%)

// Ymin (24 h) lookup, molecule = Cn1nc(C2CCC(=O)NC2=O)c2ccc(NC(=O)CN3CCC(CCCOc4cccc(-c5ccc(N6CCc7cccc(C(=O)Nc8nc9ccccc9s8)c7C6)nc5C(=O)O)c4C(F)(F)F)CC3)c(F)c21 (centres unmarked) [Compound 182] , result: B (30% ≤ Ymin < 50%)

Ymin (24 h) measured on Cn1nc(C2CCC(=O)NC2=O)c2ccc(NC(=O)CN3CCC(CCCOc4cccc(-c5ccc(N6CCc7cccc(C(=O)Nc8nc9ccccc9s8)c7C6)nc5C(=O)O)c4F)CC3)c(F)c21 (centres unmarked) [Compound 211] = C (50% ≤ Ymin < 70%)

Data point: C[C@@H](CCC1CCN(CC(=O)Nc2ccc3c(C4CCC(=O)NC4=O)nn(C)c3c2)CC1)Oc1ccc(-c2ccc(N3CCc4cccc(C(=O)Nc5nc6ccccc6s5)c4C3)nc2C(=O)O)c(C(F)(F)F)c1 (single isomer, unassigned) [Compound 138a] ; Ymin (24 h) = B (30% ≤ Ymin < 50%)
